# Test system: MCC-26
# PROCEDURE TEXT: qHTS assay to identify novel small-molecules to repurpose for Merkel cell carcinoma treatment (AID 1296009); note: nearly all actives have a fitted effect of over 60% in size
# EXPERIMENTAL CONTEXT: MCC and control cell lines, CellTiter-Glo viability, 72 h; series mostly up to 46 µM
Inconclusive results are not listed. Activity calls are given as the source filed them. Calls come from the whole dose curve; as a rule, active = well fitted inhibition curve with a large enough effect; inconclusive = small, poorly fitted or top-dose-only effect; inactive = flat fitted curve, though single readings scatter.
Give your call using only these classes: active, inactive

Per the assay record, what outcome was assigned to `Cc1[nH]cnc1CN1CCc2c(c3ccccc3n2C)C1=O` ?
inactive

Please indicate how the test categorized `Cc1cc(O)c2ccccc2c1O` .
inactive

Status in this test for `CCCCCCCC/C=C/C(=O)O` ?
inactive

Identify the outcome logged in this assay for the compound shown: `COc1cccc2c1C(=O)c1c(O)c3c(c(O)c1C2=O)C[C@@](O)(C(=O)CO)C[C@@H]3O[C@H]1C[C@H](N)[C@H](O[C@@H]2CCCCO2)[C@H](C)O1`
active

So what was the verdict on COc1ccnc2c1CCCCC2S(=O)c1nc2ccccc2[nH]1 (stereo unspecified) in this test?
inactive

Just curious, what result did `Oc1c(Br)cc(Br)c2cccnc12` get here?
inactive

====

# System: MKL-2
# PROCEDURE TEXT: qHTS assay to identify novel small-molecules to repurpose for Merkel cell carcinoma treatment (AID 1296009); note: nearly all actives have a fitted effect of over 60% in size
# EXPERIMENTAL CONTEXT: MCC and control cell lines, CellTiter-Glo viability, 72 h; series mostly up to 46 µM
Results filed as inconclusive are left out. The source made the active and inactive calls. Calls come from the whole dose curve; as a rule, active = well fitted inhibition curve with a large enough effect; inconclusive = small, poorly fitted or top-dose-only effect; inactive = flat fitted curve, though single readings scatter.
Give your call using only these classes: active, inactive

Record lookup: outcome of this test for `CN(C)c1ccc(C(=C2C=CC(=[N+](C)C)C=C2)c2ccccc2)cc1` ?
active

Which result was noted for this compound in the test: COC(=O)C1=C(C)NC(C)=C(C(=O)OCC(C)=O)C1c1ccccc1[N+](=O)[O-] (configuration not stated)
active

====

# TESTED TARGET: Hexokinase-4 (Homo sapiens) + Glucokinase regulatory protein (Homo sapiens) (UniProt P35557+Q14397)
# Sequence (P35557 whole entry, looked up): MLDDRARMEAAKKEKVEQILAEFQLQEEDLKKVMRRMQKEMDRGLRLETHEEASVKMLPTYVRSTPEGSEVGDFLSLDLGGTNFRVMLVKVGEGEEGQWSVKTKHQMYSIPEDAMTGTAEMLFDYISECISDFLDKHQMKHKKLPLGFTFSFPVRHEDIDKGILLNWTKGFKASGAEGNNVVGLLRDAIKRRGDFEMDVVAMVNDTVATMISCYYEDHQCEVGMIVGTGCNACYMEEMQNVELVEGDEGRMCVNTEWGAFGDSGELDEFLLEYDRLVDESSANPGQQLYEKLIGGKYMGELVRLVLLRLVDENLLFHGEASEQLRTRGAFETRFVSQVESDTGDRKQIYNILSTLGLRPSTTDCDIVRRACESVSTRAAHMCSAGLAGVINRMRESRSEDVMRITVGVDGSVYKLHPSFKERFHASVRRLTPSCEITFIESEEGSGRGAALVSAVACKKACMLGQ
# Sequence (Q14397 whole entry, looked up): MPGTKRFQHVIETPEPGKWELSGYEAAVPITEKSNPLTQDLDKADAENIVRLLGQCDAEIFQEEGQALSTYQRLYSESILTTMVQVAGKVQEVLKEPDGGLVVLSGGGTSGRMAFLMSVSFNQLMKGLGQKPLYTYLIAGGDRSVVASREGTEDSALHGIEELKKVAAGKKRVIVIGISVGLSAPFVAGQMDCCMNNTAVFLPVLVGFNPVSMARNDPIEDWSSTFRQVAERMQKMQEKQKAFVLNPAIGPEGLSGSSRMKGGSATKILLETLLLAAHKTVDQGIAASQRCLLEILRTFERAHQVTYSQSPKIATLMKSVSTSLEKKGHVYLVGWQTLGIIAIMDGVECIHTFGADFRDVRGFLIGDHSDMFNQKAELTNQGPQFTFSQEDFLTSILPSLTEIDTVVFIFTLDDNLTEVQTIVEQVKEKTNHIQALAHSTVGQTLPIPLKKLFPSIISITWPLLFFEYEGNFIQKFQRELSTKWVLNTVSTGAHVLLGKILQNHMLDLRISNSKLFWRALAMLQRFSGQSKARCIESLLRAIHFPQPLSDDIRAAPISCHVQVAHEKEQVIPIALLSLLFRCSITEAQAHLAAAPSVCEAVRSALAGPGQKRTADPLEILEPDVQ
# PROCEDURE TEXT: qHTS assay for inhibitors of recombinant human GCK-GKRP interaction: ADP-Glo assay (AID 743206)
# EXPERIMENTAL CONTEXT: ADP-Glo luminescence, 60 min; series mostly up to 76.9 µM
The source made the active and inactive calls. Calls follow the shape of the dose curve; as a rule, active = well fitted curve in the direction sought with a large enough effect; inconclusive = small, poorly fitted or top-dose-only effect, or another doubt; inactive = no such curve, though single readings can be large or run the other way.
OUTCOME MEASURE: outcome

Worked examples follow.
- COMPOUND: "c1cnc2c(c1)ccc1cccnc12"
  RESULT: "inactive"
- COMPOUND: "CCCCN1CCC(n2c(=O)[nH]c3ccccc32)CC1"
  RESULT: "inactive"
- COMPOUND: "COc1cccc(C(=O)NCCN2CCN(c3ccc(Cl)cc3)CC2)c1"
  RESULT: "inactive"
- COMPOUND: "COc1ccccc1CNCCCCCCNCCCCCCCCNCCCCCCNCc1ccccc1OC"
  RESULT: "inactive"
- COMPOUND: "NO"
  RESULT: "inactive"
- COMPOUND: "S=C(S)OC1CC2CC1C1CCCC21 (stereo not given)"
  RESULT: "inactive"

Using the record for `O=S(=O)(c1cccc2c(I)cccc12)N1CCCNCC1` , state its measured outcome.
inactive

Return value of outcome for input `c1ccc(-c2ccccn2)nc1` , no commentary.
inactive

Write down outcome measured for item `CCCCCCCC/C=C\CCCCCCCC(=O)NCCO`
inactive

Please look at this compound and report its outcome: `CCN1/C(=C/C(C)=O)Sc2ccc(OC)cc21`
inactive
